Reference source for all entries: patent US20090018111A1

Tested on: E. faecium ATCC19434
EXPERIMENTAL_PROTOCOL: Sensitivity test (agar dilution)
Format: cell-based, Enterococcus faecium
PARTICULARS: Enterococcus faecium, ATCC19434, drug alone; E. faecium ATCC19434; read-out: MIC alone
VALUE_TYPE: MIC (µg/mL)
Expressed in µg/mL, but write only the number.

C[C@H]1C=C(c2csc(SC3=C(C(=O)O)N4C(=O)[C@H]([C@@H](C)O)[C@H]4[C@H]3C)n2)CN1 = 0.25

Here's the next entry for you.
// MIC (E. faecium ATCC19434) for "CC(=N)N1CC[C@H](SC2=C(C(=O)O)N3C(=O)[C@H]([C@@H](C)O)[C@H]3C2)C1" = 8

* * *

Tested on: S. aureus 209P
EXPERIMENTAL_PROTOCOL: Sensitivity test (agar dilution)
Format: cell-based, Staphylococcus aureus
PARTICULARS: Staphylococcus aureus, 209P, drug alone; S. aureus 209P; read-out: MIC alone
VALUE_TYPE: MIC (µg/mL)
Expressed in µg/mL, but write only the number.

C[C@@H](O)[C@H]1C(=O)N2C(C(=O)[O-])=C(SC3Cn4cnc[n+]4C3)[C@H](C)[C@H]12 (stereo partly shown) = 0.031
CC(=N)N1CC[C@H](SC2=C(C(=O)O)N3C(=O)[C@H]([C@@H](C)O)[C@H]3C2)C1 = 0.031

Record "CCN1CCN(C(=O)N[C@@H](C(=O)N[C@@H]2C(=O)N3[C@@H]2SC(C)(C)[C@@H]3C(=O)O)c2ccccc2)C(=O)C1=O" , field MIC: 0.25

Record "CC(C)(O/N=C(\C(=O)N[C@@H]1C(=O)N2C(C(=O)[O-])=C(C[n+]3ccccc3)CS[C@H]12)c1csc(N)n1)C(=O)O" , field MIC: 8

Record "C[C@@H](O)[C@H]1C(=O)N2C(C(=O)O)=C(S[C@@H]3CN[C@H](CNS(N)(=O)=O)C3)[C@H](C)[C@H]12" , field MIC: 0.016

Record "C[C@H]1C=C(c2csc(SC3=C(C(=O)O)N4C(=O)[C@H]([C@@H](C)O)[C@H]4[C@H]3C)n2)CN1" , field MIC: 0.008

* * *

Listing of entries alongside the reported MIC.
System: P. aeruginosa TL-2667
EXPERIMENTAL_PROTOCOL: Sensitivity test (agar dilution)
Format: cell-based, Pseudomonas aeruginosa
PARTICULARS: Pseudomonas aeruginosa, TL2667, drug alone; P. aeruginosa TL-2667; read-out: MIC alone
Expressed in µg/mL, but write only the number.

C[C@H]1C=C(c2csc(SC3=C(C(=O)O)N4C(=O)[C@H]([C@@H](C)O)[C@H]4[C@H]3C)n2)CN1 [SM] = 16
CCN1CCN(C(=O)N[C@@H](C(=O)N[C@@H]2C(=O)N3[C@@H]2SC(C)(C)[C@@H]3C(=O)O)c2ccccc2)C(=O)C1=O [PIPC, piperacillin] = 2
C[C@H]1[C@H](NC(=O)/C(=N\OC(C)(C)C(=O)O)c2csc(N)n2)C(=O)N1S(=O)(=O)O [AZT, aztreonam] = 2

Here's the next entry for you.
Record CC(=N)N1CC[C@H](SC2=C(C(=O)O)N3C(=O)[C@H]([C@@H](C)O)[C@H]3C2)C1 [PAPM, panipenem] , field MIC: 16

* * *

Tested on: E. faecium ATCC19434
EXPERIMENTAL_PROTOCOL: Sensitivity test (agar dilution)
Assay type: cell-based, Enterococcus faecium
PARTICULARS: Enterococcus faecium, ATCC19434, drug alone; E. faecium ATCC19434; read-out: MIC alone
Listing of entries alongside the reported MIC.
Express your answer as a number followed by its unit.

Below are worked cases with known answers.
CCN1CCN(C(=O)N[C@@H](C(=O)N[C@@H]2C(=O)N3[C@@H]2SC(C)(C)[C@@H]3C(=O)O)c2ccccc2)C(=O)C1=O = 8 µg/mL
C[C@@H](O)[C@H]1C(=O)N2C(C(=O)[O-])=C(SC3Cn4cnc[n+]4C3)[C@H](C)[C@H]12 (stereo partly drawn) = 16 µg/mL

Here's the next entry for you.
// MIC (E. faecium ATCC19434) for "C[C@@H](O)[C@H]1C(=O)N2C(C(=O)O)=C(S[C@@H]3CN[C@H](CNS(N)(=O)=O)C3)[C@H](C)[C@H]12" = 8 µg/mL

* * *

System: E. coli ML1410
EXPERIMENTAL_PROTOCOL: Sensitivity test (agar dilution)
Format: cell-based, Escherichia coli
PARTICULARS: Escherichia coli, ML1410, drug alone; E. coli ML1410; read-out: MIC alone
Listing of entries alongside the reported MIC.
Expressed in µg/mL, but write only the number.

Below are worked cases with known answers.
C[C@@H](O)[C@H]1C(=O)N2C(C(=O)[O-])=C(SC3Cn4cnc[n+]4C3)[C@H](C)[C@H]12 (stereo partly shown) = 0.25
C[C@H]1[C@H](NC(=O)/C(=N\OC(C)(C)C(=O)O)c2csc(N)n2)C(=O)N1S(=O)(=O)O = 0.125

Record "CC(C)(O/N=C(\C(=O)N[C@@H]1C(=O)N2C(C(=O)[O-])=C(C[n+]3ccccc3)CS[C@H]12)c1csc(N)n1)C(=O)O" , field MIC: 0.25

* * *

Listing of entries alongside the reported MIC.
Test system: S. epidermidis IAM1296
EXPERIMENTAL_PROTOCOL: Sensitivity test (agar dilution)
Format: cell-based, Staphylococcus epidermidis
PARTICULARS: Staphylococcus epidermidis, IAM1296, drug alone; S. epidermidis IAM1296; read-out: MIC alone
Procedure: […] FIC index based on MIC value was calculated. […] Namely, when FIC index calculated by the following formula is equal or less than 1, the enhanced effect of the combination drug in said ratio is considered as positive. […] Formula of FIC index: FIC index=(MIC of Drug A in combination/MIC of Drug A alone)+(MIC of Drug B in combination/MIC of Drug B alone) N.C. in tables means being not calculated.
Expressed in µg/mL, but write only the number.

CCN1CCN(C(=O)N[C@@H](C(=O)N[C@@H]2C(=O)N3[C@@H]2SC(C)(C)[C@@H]3C(=O)O)c2ccccc2)C(=O)C1=O = 2
CC(=N)N1CC[C@H](SC2=C(C(=O)O)N3C(=O)[C@H]([C@@H](C)O)[C@H]3C2)C1 = 0.5
C[C@@H](O)[C@H]1C(=O)N2C(C(=O)O)=C(S[C@@H]3CN[C@H](CNS(N)(=O)=O)C3)[C@H](C)[C@H]12 = 0.5
C[C@H]1C=C(c2csc(SC3=C(C(=O)O)N4C(=O)[C@H]([C@@H](C)O)[C@H]4[C@H]3C)n2)CN1 = 0.031

Record C[C@@H](O)[C@H]1C(=O)N2C(C(=O)[O-])=C(SC3Cn4cnc[n+]4C3)[C@H](C)[C@H]12 (stereo partly shown) , field MIC: 1

* * *

System: B. subtilis ATCC6633
EXPERIMENTAL_PROTOCOL: Sensitivity test (agar dilution)
Type: cell-based, Bacillus subtilis
PARTICULARS: Bacillus subtilis, ATCC6633, drug alone; B. subtilis ATCC6633; read-out: MIC alone
VALUE_TYPE: log10 MIC (log10 of the value in µg/mL)
Note: values are log10 of MIC expressed in µg/mL.

Record "CC(=N)N1CC[C@H](SC2=C(C(=O)O)N3C(=O)[C@H]([C@@H](C)O)[C@H]3C2)C1" , field log10 MIC: -1.80

Record "C[C@@H](O)[C@H]1C(=O)N2C(C(=O)O)=C(S[C@@H]3CN[C@H](CNS(N)(=O)=O)C3)[C@H](C)[C@H]12" , field log10 MIC: -2.10

* * *

Test system: P. mirabiris GN2425
EXPERIMENTAL_PROTOCOL: Sensitivity test (agar dilution)
Type: cell-based, Proteus mirabilis
PARTICULARS: Proteus mirabilis, GN2425, drug alone; P. mirabiris GN2425; read-out: MIC alone
VALUE_TYPE: MIC (µg/mL)
Expressed in µg/mL, but write only the number.

CC(=N)N1CC[C@H](SC2=C(C(=O)O)N3C(=O)[C@H]([C@@H](C)O)[C@H]3C2)C1 = 1

// MIC (P. mirabiris GN2425) for "C[C@H]1[C@H](NC(=O)/C(=N\OC(C)(C)C(=O)O)c2csc(N)n2)C(=O)N1S(=O)(=O)O" = 0.004

// MIC (P. mirabiris GN2425) for C[C@@H](O)[C@H]1C(=O)N2C(C(=O)[O-])=C(SC3Cn4cnc[n+]4C3)[C@H](C)[C@H]12 (some centres unmarked) = 0.25

// MIC (P. mirabiris GN2425) for "CC(C)(O/N=C(\C(=O)N[C@@H]1C(=O)N2C(C(=O)[O-])=C(C[n+]3ccccc3)CS[C@H]12)c1csc(N)n1)C(=O)O" = 0.063

// MIC (P. mirabiris GN2425) for "C[C@@H](O)[C@H]1C(=O)N2C(C(=O)O)=C(S[C@@H]3CN[C@H](CNS(N)(=O)=O)C3)[C@H](C)[C@H]12" = 0.063
